meta.source: patent US6376510B1

Tested on: anesthetized rats (evoked responses of anterior tibial muscle)
Test: In vivo neuromuscular block and cardiovascular side effects, anesthetized rat (Example 8, Table 3)
Settings: Rattus norvegicus, iv
# if measured ED50 < 0.3 mg/kg: label 1  # else: label 0

{"Molecule": "CC(=O)Oc1ccc(C[N+]2(C)[C@@H]3CC[C@H]2C[C@@H](OC(=O)CCCC(=O)O[C@H]2C[C@H]4CC[C@@H](C2)[N+]4(C)Cc2ccc(OC(C)=O)c(OC(C)=O)c2)C3)cc1OC(C)=O.[Br-].[Br-] (stereo partly drawn)", "Group Label": "label 1"}
{"Molecule": "COc1ccc(CC2c3cc(OC)c(OC)cc3CC[N+]2(C)CCC(=O)OCCCCCOC(=O)CC[N+]2(C)CCc3cc(OC)c(OC)cc3C2Cc2ccc(OC)c(OC)c2)cc1OC (stereo not drawn) [Atracurium, reference compound]", "Group Label": "label 0"}
{"Molecule": "COc1cc(C[N+]2(C)[C@@H]3CC[C@H]2C[C@@H](OC(=O)C2CCC2C(=O)O[C@H]2C[C@H]4CC[C@@H](C2)[N+]4(C)Cc2cc(OC)c(OC(C)=O)c(OC)c2)C3)cc(OC)c1OC(C)=O.[Br-].[Br-] (stereo partly drawn)", "Group Label": "label 0"}
{"Molecule": "CC(=O)Oc1ccc(C[N+]2(C)[C@@H]3CC[C@H]2C[C@@H](OC(=O)C2CCCC(C(=O)O[C@H]4C[C@H]5CC[C@@H](C4)[N+]5(C)Cc4ccc(OC(C)=O)c(OC(C)=O)c4)C2)C3)cc1OC(C)=O.[Br-].[Br-] (stereo partly drawn)", "Group Label": "label 1"}
{"Molecule": "COc1cc(C[N+]2(C)[C@@H]3CC[C@H]2C[C@@H](OC(=O)CCCCCCCCCC(=O)O[C@H]2C[C@H]4CC[C@@H](C2)[N+]4(C)Cc2cc(OC)c(OC(C)=O)c(OC)c2)C3)cc(OC)c1OC(C)=O.[Br-].[Br-] (stereo partly drawn)", "Group Label": "label 0"}
{"Molecule": "CCC(=O)Oc1c(OC)cc(C[N+]2(C)[C@@H]3CC[C@H]2C[C@@H](OC(=O)C2CCCC(C(=O)O[C@H]4C[C@H]5CC[C@@H](C4)[N+]5(C)Cc4cc(OC)c(OC(=O)CC)c(OC)c4)C2)C3)cc1OC.[Br-].[Br-] (stereo partly drawn)", "Group Label": "label 1"}
{"Molecule": "CCC(=O)Oc1ccc(C[N+]2(C)[C@@H]3CC[C@H]2C[C@@H](OC(=O)C2CCC2C(=O)O[C@H]2C[C@H]4CC[C@@H](C2)[N+]4(C)Cc2ccc(OC(=O)CC)c(OC(=O)CC)c2)C3)cc1OC(=O)CC.[Br-].[Br-] (stereo partly drawn)", "Group Label": "label 1"}
{"Molecule": "COc1cc(C[N+]2(C)[C@@H]3CC[C@H]2C[C@@H](OC(=O)C2CCCC(C(=O)O[C@H]4C[C@H]5CC[C@@H](C4)[N+]5(C)Cc4ccc(OC(C)=O)c(OC)c4)C2)C3)ccc1OC(C)=O.[Br-].[Br-] (stereo partly drawn)", "Group Label": "label 1"}
{"Molecule": "C=CC[N+]1([C@H]2C[C@H]3[C@@H]4CC[C@H]5C[C@H](O)[C@@H](N6CCOCC6)C[C@]5(C)[C@H]4CC[C@]3(C)[C@H]2OC(C)=O)CCCC1 [Rocuronium, reference compound]", "Group Label": "label 0"}
{"Molecule": "CC(=O)Oc1ccc(C[N+]2(C)[C@@H]3CC[C@H]2C[C@@H](OC(=O)C2CCC2C(=O)O[C@H]2C[C@H]4CC[C@@H](C2)[N+]4(C)Cc2ccc(OC(C)=O)c(OC(C)=O)c2)C3)cc1OC(C)=O.[Br-].[Br-] (stereo partly drawn)", "Group Label": "label 1"}
{"Molecule": "C[N+]1(Cc2ccccc2Br)[C@@H]2CC[C@H]1C[C@@H](OC(=O)CCCC(=O)O[C@H]1C[C@H]3CC[C@@H](C1)[N+]3(C)Cc1ccccc1Br)C2.[Br-].[Br-] (stereo partly drawn) [reference compound]", "Group Label": "label 0"}
